B1: Twister Ribozyme (parent)
chain: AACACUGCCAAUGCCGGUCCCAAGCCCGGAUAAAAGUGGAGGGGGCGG

Variants of: B1
procedure details: self-cleavage, relative activity (ratio to wild type); higher = more cleavage; co-transcriptional
List of self-cleavage values.
I'd appreciate a reply containing only the number, no unit.

Past entries and their recorded results:
AACACCGCCAAUGCCGGUCCCAAGCCCGGAUAAAAGUGUAGGGGGCGG [U6C G39U]
0.114
AACAAUGGCAAUGCCGGUCCCAAGCCCGGAUAAAAGUGGAGGGGGCGG [C5A C8G]
0.106

What value of measured self-cleavage is listed for AAUACUGCCAAUGCCGGUCCCAAACCCGGAUAAAAGUGGAGGGGGCGG [C3U G24A] ? 0.0721

Also AACACUGCCAAUGCCGUUCCCAAGCCCGGAUAAAAGUGGAGGGGGCGC [G17U G48C] ? 0.467

Also GACACUGCCAAUGCCGGUCCCAAGUCCGGAUAAAAGUGGAGGGGGCGG [A1G C25U] ? 0.222

Also AACACUGCCAAUGCCGGUCCCAAGCCCGGACAAAAGUGGAGGGGGCGC [U31C G48C] ? 1.2

Also AACACUGCCAAUGCCGGUCCCAAGCCCGGAUACAAGUGCAGGGGGCGG [A33C G39C] ? 0.12

Also CACACUGCCAAUGCCGGGCCCAAGCCCGGAUAAAAGUGGAGGGGGCGG [A1C U18G] ? 0.136

Also AACAGUGCCAAUGCCGGUCCCAAGCCCGGAGAAAAGUGGAGGGGGCGG [C5G U31G] ? 0.757

Also AACACUGCCUAUGCCGGUCCCCAGCCCGGAUAAAAGUGGAGGGGGCGG [A10U A22C] ? 0.93

Also AACACUGCCAAUGCCGGUCCCGAGCCCGGAUAAAAGUGGAGGGUGCGG [A22G G44U] ? 0.243

Also AACAGAGCCAAUGCCGGUCCCAAGCCCGGAUAAAAGUGGAGGGGGCGG [C5G U6A] ? 0.404

Also AACACUGCCAAUGUCGCUCCCAAGCCCGGAUAAAAGUGGAGGGGGCGG [C14U G17C] ? 0.152

Also AACACUGCCAAUGCCGGUCCCUAGCCCGGAUACAAGUGGAGGGGGCGG [A22U A33C] ? 0.737

Also AACACUGGCAAUGCCGGUACCAAGCCCGGAUAAAAGUGGAGGGGGCGG [C8G C19A] ? 0.0465
